molecular target: 5-hydroxytryptamine receptor 6 (Homo sapiens) (UniProt P50406); conditions: Compound concentration 10 µM; call rule not given here
Sequence (P50406 whole entry): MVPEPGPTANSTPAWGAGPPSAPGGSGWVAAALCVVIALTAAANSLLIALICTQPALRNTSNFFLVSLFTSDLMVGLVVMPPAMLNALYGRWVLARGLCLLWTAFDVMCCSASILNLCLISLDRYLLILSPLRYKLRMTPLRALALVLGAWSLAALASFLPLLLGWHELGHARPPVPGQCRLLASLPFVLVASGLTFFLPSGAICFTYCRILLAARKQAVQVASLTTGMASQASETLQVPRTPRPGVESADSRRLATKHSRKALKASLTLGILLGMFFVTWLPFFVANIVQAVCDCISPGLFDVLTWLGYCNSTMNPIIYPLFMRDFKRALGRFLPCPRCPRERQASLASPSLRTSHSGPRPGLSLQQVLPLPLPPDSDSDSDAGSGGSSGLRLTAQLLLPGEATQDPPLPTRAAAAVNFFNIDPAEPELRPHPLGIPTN
Labels: active, inactive

1) Cc1c(F)cccc1NC(=O)Nc1ccc(Cl)c(S(=O)(=O)[C@H]2CCCNC2)c1O	inactive
2) CN1CCN(c2ccc(Nc3c4ccccc4nc4ccccc34)cc2)CC1	inactive
3) N=C(N)SCCc1c[nH]cn1	inactive
4) N#Cc1ccc2[nH]cc(CCCCN3CCN(c4ccc5oc(C(N)=O)cc5c4)CC3)c2c1	inactive
5) Cc1cc(C)cc(-c2cnc3cc(Cl)c(-c4cccc(O)c4)cc3c2OCCCN)c1	active
6) CN1C2CCC1CC(OC(c1ccc(F)cc1)c1ccc(F)cc1)C2 (stereo unspecified)	active

====

# inhibition listing for each entry below
biological target: 5-hydroxytryptamine receptor 2A (Homo sapiens); settings: Compound concentration 10 µM
Description: PDSP Primary Binding target: HTR2A - Compounds are tested at 10 uM concentration, plate are incubated at room temperature in the dark for 90 minutes. Reaction are stopped by vacuum filtration onto 0.3% polyethyleneimine soaked filter mats using Filtermate harvester. Scintilation cocktail is then melted onto microwave-dried filters on a hot plate and the radio activity is counted in Microbia counter.
property: inhibition

1. COc1ccc2cc(S(=O)(=O)N[C@H](CC(=O)N[C@H](Cc3ccc(CN4[C@H](C)CCC[C@@H]4C)cc3)C(=O)N(C)C(C)C)c3ccc4c(c3)OCO4)ccc2c1	28.8%
2. CCCCCCCCCCCCC/C=C/[C@@H](O)[C@@H](N)COP(=O)(O)O	-3.21%
3. C=CCN1C[C@H](C)N([C@H](c2ccc(C(=O)N(CC)CC)cc2)c2cccc(O)c2)C[C@H]1C	2.09%
4. Cc1ccc(O)c([C@H](CCN(C(C)C)C(C)C)c2ccccc2)c1	11.4%
5. CC(C)C[C@H](NC(=O)N1CCCCCC1)C(=O)N[C@H](Cc1cn(C)c2ccccc12)C(=O)N[C@H](Cc1ccccn1)C(=O)O	-0.06%
6. O=C1N/C(=N/c2ccccc2F)S/C1=C\c1ccc(C(=O)O)cc1	-0.36%
7. c1cc(CN2CCCNCCNCCCNCC2)ccc1CN1CCCNCCNCCCNCC1	0.83%
8. COc1ccc(/C=C/CCCCOc2ccc(C(=O)c3cccc(C(=O)O)c3)cc2CCC(=O)O)cc1	33.6%
9. NCCc1cn(S(=O)(=O)c2c(Cl)nc3sccn23)c2ccccc12	94.2%
10. C[C@H](CO)Nc1nc(SCc2cccc(Cl)c2F)nc2[nH]c(=O)sc12	7.55%
11. N#Cc1c(N)nc(SCC(N)=O)c(C#N)c1-c1ccc(OCC2CC2)cc1	28.7%
12. CN(C)S(=O)(=O)c1ccc(NC(=S)N2CCC(C(O)(c3ccccc3)c3ccccc3)CC2)cc1	11%
13. COC(=O)C1=C(C)NC(C)=C(C(=O)OCCCN2CCC(c3ccccc3)(c3ccccc3)CC2)[C@H]1c1cccc([N+](=O)[O-])c1	-1.08%
14. COc1cccc(-c2c(C)n(Cc3c(F)cccc3C(F)(F)F)c(=O)n(C[C@H](NCCCC(=O)O)c3ccccc3)c2=O)c1F	-2.02%
15. CCC[C@H](Oc1cc(C)c(-n2cc(C(F)(F)F)cn2)c(C)c1)c1ccc(C(=O)NCCC(=O)O)cc1	4.78%
16. N[C@H](C(=O)O)c1ccc(C(=O)O)c(C(=O)O)c1	5.29%
17. Clc1cccc(COc2cncc(N3CCNCC3)n2)c1	99%
18. Nc1nc2c(c(N3CCNCC3)n1)CCC1=C2[C@@H]2CCCC[C@@H]2O1	50.6%

====

Entries annotated with measured inhibition
biological target: Histamine H3 receptor (Homo sapiens) (UniProt Q9Y5N1); details: Compound concentration 10 µM
Sequence (Q9Y5N1 whole entry): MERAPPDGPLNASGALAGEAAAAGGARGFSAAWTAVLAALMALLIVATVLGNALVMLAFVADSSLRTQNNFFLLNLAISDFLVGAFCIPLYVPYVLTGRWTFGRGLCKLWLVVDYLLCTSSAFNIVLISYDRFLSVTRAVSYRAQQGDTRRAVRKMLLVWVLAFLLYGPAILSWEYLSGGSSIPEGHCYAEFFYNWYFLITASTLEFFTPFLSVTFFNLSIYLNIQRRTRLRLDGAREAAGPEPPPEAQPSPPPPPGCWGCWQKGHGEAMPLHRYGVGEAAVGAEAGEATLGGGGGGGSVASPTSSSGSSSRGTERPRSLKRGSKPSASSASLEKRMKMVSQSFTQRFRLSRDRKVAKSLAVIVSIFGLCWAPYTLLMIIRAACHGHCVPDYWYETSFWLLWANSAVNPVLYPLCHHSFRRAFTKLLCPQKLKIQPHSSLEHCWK
Description: PDSP Primary Binding target: HRH3 - Compounds are tested at 10 uM concentration, plate are incubated at room temperature in the dark for 90 minutes. Reaction are stopped by vacuum filtration onto 0.3% polyethyleneimine soaked filter mats using Filtermate harvester. Scintilation cocktail is then melted onto microwave-dried filters on a hot plate and the radio activity is counted in Microbia counter.
property: inhibition (%)

1. C/C(=N\NC(=O)[C@@H]1C(=O)NC[C@H]1c1ccccc1)c1cccc(Br)c1	7.14
2. COc1ccccc1CN[C@H]1C2CCN(CC2)[C@H]1C(c1ccccc1)c1ccccc1	11.3
3. COc1cc(-n2cnc3cc(-c4ccc(Cl)cc4)sc3c2=O)ccc1OCCN1CCCC1	88.9
4. Cc1nc(-c2ccc(C(F)(F)F)cc2)sc1COc1ccc([C@H](CC(=O)O)c2ccon2)cc1	9.74
5. Cc1csc(NC(=O)c2cc(F)cc(Oc3cncnc3)c2)n1	2.1
6. CN[C@@H]1CCc2[nH]c3ccc(C(N)=O)cc3c2C1	11.7
7. CCCCC#Cc1nc(NC)c2ncn([C@@H]3O[C@H](CO)[C@@H](O)[C@H]3O)c2n1	7.95
8. CN(C(=O)Cc1ccc(Cl)c(Cl)c1)C(CN1CCCC1)c1cccc(OCC(=O)O)c1 (stereo not given)	-7.51
9. Cc1ccc2c(c1)c1c(n2CCc2ccc(C)nc2)CCN(C)C1	16.2
10. CCC[C@H](Oc1cc(C)c(-n2cc(C(F)(F)F)cn2)c(C)c1)c1ccc(C(=O)NCCC(=O)O)cc1	11.1
11. Clc1ccc(CCCOCCCN2CCCCC2)cc1	79.8
12. NCCc1cn(S(=O)(=O)c2c(Cl)nc3sccn23)c2ccccc12	55.7
13. N[C@H](C(=O)O)c1ccc(C(=O)O)c(C(=O)O)c1	11.6
14. Cc1cc(C)cc(-c2cnc3cc(Cl)c(-c4cccc(O)c4)cc3c2OCCCN)c1	10.6
15. COc1ccc2cc(S(=O)(=O)N[C@H](CC(=O)N[C@H](Cc3ccc(CN4[C@H](C)CCC[C@@H]4C)cc3)C(=O)N(C)C(C)C)c3ccc4c(c3)OCO4)ccc2c1	62.1
16. CCc1cc(C(C)=O)c(O)cc1OCCCCCC(C)(C)c1nn[nH]n1	0.93
17. COc1ccc(NC(=O)c2ccc(-c3ccc(-c4noc(C)n4)cc3C)cc2)cc1OCCN(C)C	65.4
18. OCc1cc(C(O)CNCCCCCCOCCCCc2ccccc2)ccc1O (stereo not given)	23.3
19. CCCCN(CCCC)C(=O)CN1C[C@@H](c2ccc3c(c2)OCO3)[C@H](C(=O)O)[C@H]1c1ccc(OC)cc1	-6.84
20. Cc1cc(C)c(N)c(C#Cc2cccc(F)c2)n1	-8.58
21. Cc1cc([C@@H](C)Nc2cccc(-c3cc(C)c(C(=O)N[C@@H](C)C(=O)O)c(C)c3)c2)ccc1Cl	10
22. CC(C)Oc1ccccc1C(=O)Nc1ccccc1C(=O)Nc1cccc(S(=O)(=O)C(F)(F)F)c1	-5.72
23. Cc1cc(NC(=O)NCCN2CCC(O)(Cc3ccccc3)CC2)c2ccccc2n1	31
24. COc1ccccc1N1CCN(CCCCNC(=O)c2ccc3ccccc3c2)CC1	49.6
25. Cc1cccc(NC(=O)N[C@@H]2N=C(c3ccccc3)c3ccccc3N(C)C2=O)c1	-5.59
26. O=C(Cc1ccc(Cl)c(Cl)c1)N1CCCC[C@H]1CN1CCCC1	37.3
27. COc1ccnc(N2CCC3(CCCN(Cc4c[nH]c5ccccc45)C3=O)CC2)n1	0.7
28. N#Cc1c(N)nc(SCC(N)=O)c(C#N)c1-c1ccc(OCC2CC2)cc1	-3.51
29. Cc1nc2sccn2c(=O)c1CCN1CCC(=C(c2ccc(F)cc2)c2ccc(F)cc2)CC1	30.7
30. c1nc(CC2CCNCC2)c[nH]1	95.9
31. CCCCCCCCCCCCCCCCOC[C@H](COP(=O)([O-])OCC[N+](C)(C)C)OC(C)=O	-0.67
32. CN(C)C(=O)N[C@H]1CC[C@H](CCN2CCN(c3cccc(Cl)c3Cl)CC2)CC1	4.23
33. O=C(c1cc2c(cc1F)OC(c1ccc(F)cc1)(c1ccc(Cl)cc1Cl)O2)N1CCOCC1 (stereo not given)	21
34. CN1CCC(=C2c3ccccc3CC(=O)c3sccc32)CC1	-7.74
35. O=C(O)Cn1c(C(=O)Nc2nc(-c3ccccc3Cl)cs2)cc2ccccc21	-1.46
36. COc1cccc([C@H](O)C2CCN(CCc3ccc(F)cc3)CC2)c1OC	3.17
37. N#Cc1cccc(C(=O)Nc2cc(-c3ccccc3)nn2-c2ccccc2)c1	7.12
38. CN(C)C(=O)C(CCN1CCC(O)(c2ccc(Cl)cc2)CC1)(c1ccccc1)c1ccccc1	10.4
39. NC(=O)[C@@H]1CCCN1C(=O)[C@H](Cc1c[nH]cn1)NC(=O)[C@@H]1CCC(=O)N1	10.9
40. N#Cc1c(N)nc(SCc2csc(-c3ccc(Cl)cc3)n2)c(C#N)c1-c1ccc(OCCO)cc1	5.12

====

biological target: Delta-type opioid receptor (Homo sapiens); conditions: Compound concentration 10 µM; call rule not given here
Possible outcomes: 1 (yes) (active), 0 (no) (inactive)

1) COc1ccccc1N1CCN(CCCCNC(=O)c2ccc3ccccc3c2)CC1	0 (no)
2) COc1ccnc(N2CCC3(CCCN(Cc4c[nH]c5ccccc45)C3=O)CC2)n1	0 (no)
3) COc1cccc(-c2c(C)n(Cc3c(F)cccc3C(F)(F)F)c(=O)n(C[C@H](NCCCC(=O)O)c3ccccc3)c2=O)c1F	0 (no)
4) CC(C)(N)C(=O)N[C@H](COCc1ccccc1)C(=O)N1CCC2(CC1)CN(S(C)(=O)=O)c1ccccc12	0 (no)
5) Cc1csc2c(N[C@@H](C)CN3CCN(S(=O)(=O)c4ccc(Cl)c(Cl)c4)CC3)ncnc12	0 (no)
6) CN1CCC(C(=O)c2cccc(NC(=O)c3c(F)cc(F)cc3F)n2)CC1	0 (no)
7) COC1CCN(c2cccc(-c3cc(NC(C)=O)nc(-n4nc(C)cc4C)n3)n2)CC1	0 (no)
8) COc1cccc([C@H](O)C2CCN(CCc3ccc(F)cc3)CC2)c1OC	0 (no)
9) S=C(NCCCc1c[nH]cn1)NCCCN(Cc1ccc(Cl)c(Cl)c1)c1ccc(Br)cn1	0 (no)
10) Brc1c(NC2=NCCN2)ccc2nccnc12	0 (no)
11) CC(C)[C@H](CO)Nc1nc(Nc2cccc(Cl)c2)c2ncn(C(C)C)c2n1	0 (no)
12) N#Cc1c(O)nc(SCc2cccc(F)c2F)nc1C1CC1	0 (no)
13) O=c1ccn([C@@H]2O[C@H](COP(=O)(O)OP(=O)(O)OP(=O)(O)O)[C@@H](O)[C@H]2O)c(=O)[nH]1	0 (no)
14) O=C1O[C@]2(CC[C@H](C(=O)Nc3ccn(-c4ccccc4F)n3)CC2)c2cnccc21	0 (no)
15) CC(C)Oc1ccccc1C(=O)Nc1ccccc1C(=O)Nc1cccc(S(=O)(=O)C(F)(F)F)c1	0 (no)
16) C[N+]1(C)[C@@H]2C[C@@H](OC(=O)C(O)(c3cccs3)c3cccs3)C[C@H]1[C@@H]1O[C@@H]12	0 (no)
17) Cc1cn2cc(CC(=O)N3CCC4(CC3)CN(Cc3ccc(-n5nccn5)cc3Cl)C4)nc2s1	0 (no)
18) COc1cccc([C@@H](C)NCCCc2ccccc2Cl)c1	0 (no)
19) C[C@]1(C(=O)N(CCCC(=O)O)Cc2cccc(Cl)c2)CCN1C(=O)c1csc2ccccc12	0 (no)
20) CCCNS(=O)(=O)Nc1ncnc(OCCOc2ncc(Br)cn2)c1-c1ccc(Br)cc1	0 (no)
21) O=C(O)Cn1c(C(=O)Nc2nc(-c3ccccc3Cl)cs2)cc2ccccc21	0 (no)
22) CNC[C@H](O)c1cccc(O)c1	0 (no)
23) COC(=O)C1=C(C)NC(C)=C(C(=O)OCCCN2CCC(c3ccccc3)(c3ccccc3)CC2)[C@H]1c1cccc([N+](=O)[O-])c1	1 (yes)
24) Clc1cccc(Cl)c1NC1=NCCN1	0 (no)
25) O=C(O)COc1cccc(CN(Cc2ccc(-n3cccn3)cc2)S(=O)(=O)c2cccnc2)c1	0 (no)
26) CCCCN(CC)c1nc(C)nc2c1c(C)cn2-c1c(C)cc(C)cc1C	0 (no)
27) CCC[C@H](Oc1cc(C)c(-n2cc(C(F)(F)F)cn2)c(C)c1)c1ccc(C(=O)NCCC(=O)O)cc1	0 (no)
28) COc1ccc(NC(=O)c2ccc(-c3ccc(-c4noc(C)n4)cc3C)cc2)cc1OCCN(C)C	0 (no)
29) O=C(O)C1CN(Cc2ccc(-c3nc4cc(Cc5ccccc5F)ccc4s3)c(F)c2)C1	0 (no)
30) Cc1ccc(O)c([C@H](CCN(C(C)C)C(C)C)c2ccccc2)c1	0 (no)
31) c1nc(CC2CCNCC2)c[nH]1	0 (no)
32) CCCSc1nc(N[C@@H]2C[C@H]2c2ccc(F)c(F)c2)c2nnn([C@@H]3C[C@H](OCCO)[C@@H](O)[C@H]3O)c2n1	0 (no)
33) c1ccc(N2CCN(Cc3nc4ccccc4[nH]3)CC2)nc1	0 (no)
34) CC(C)NCC(O)COc1ccc(CCOCC2CC2)cc1 (stereo not given)	0 (no)
35) CCc1nn2c(C)cc(C)nc2c1Cc1ccc(-c2nnc(C3CCNCC3)o2)cc1	0 (no)
36) CN(C)S(=O)(=O)c1ccc(NC(=S)N2CCC(C(O)(c3ccccc3)c3ccccc3)CC2)cc1	0 (no)
37) Cc1nc(C#Cc2ccnc(Cl)c2)c(C)n1-c1ccc(OC(F)(F)F)cc1	0 (no)
38) Clc1ccc(CCCOCCCN2CCCCC2)cc1	0 (no)
39) COc1ccc(NS(=O)(=O)c2sc3ccc(Cl)cc3c2C)cc1N1CCNCC1	0 (no)
40) COc1cc2nc(N3CCN(C(=O)c4ccco4)CC3)nc(N)c2cc1OC	0 (no)
